// provenance: patent US20240158446A1

Values of IC50 reported for human lung cancer strain NCI-H441 appear below.
Just the number please, in nM, no unit attached.

- CCOC[C@H]1C(=O)N[C@@H]([C@@H](C)CC)C(=O)N(C)CC(=O)N(C)[C@H]2C/C=C\CCN(C2=O)[C@@H](Cc2ccc(C(F)(F)F)cc2)C(=O)N(C)CC(=O)N[C@@H](CCc2ccc(C(F)(F)F)c(OC)c2)C(=O)N2C[C@H](OCC)C[C@H]2C(=O)NC2(CC(C)(C)C2)C(=O)N(C)[C@@H](CC2CCC2)C(=O)N(C)[C@H](C(=O)N(C)C)CC(=O)N1C: 180
- CCOC[C@H]1C(=O)N[C@@H]([C@@H](C)CC)C(=O)N(C)CC(=O)N(C)[C@H]2C/C=C\CCN(C2=O)[C@@H](Cc2ccc(C)cc2)C(=O)N(C)CC(=O)N[C@@H](CCc2ccc(C(F)(F)F)c(Cl)c2)C(=O)N2C[C@H](OCC)C[C@H]2C(=O)NC2(CC(C)(C)C2)C(=O)N(C)[C@@H](C2CCCC2)C(=O)N(C)[C@H](C(=O)N(C)C)CC(=O)N1C: 6.3
- CC[C@H](C)[C@@H]1NC(=O)[C@H](CC)N(C)C(=O)C[C@@H](C(=O)N(C)C)N(C)C(=O)[C@H](C2CCCC2)N(C)C(=O)C2(CCC2)NC(=O)[C@@H]2C[C@@H](C(F)(F)F)CN2C(=O)[C@H](CCc2cc(F)c(C(F)(F)F)c(F)c2)NC(=O)CN(C)C(=O)[C@H](Cc2ccc(C(F)(F)F)cc2)N2CC/C=C\C[C@@H](C2=O)N(C)C(=O)CN(C)C1=O: 16.5
- CC[C@H](C)[C@@H]1NC(=O)[C@H](CC(C)C)N(C)C(=O)C[C@@H](C(=O)N2CCOCC2)N(C)C(=O)[C@H](C2CCCC2)N(C)C(=O)C2(CCCC2)NC(=O)[C@@H]2CCCN2C(=O)[C@H](CCc2ccc(C(F)(F)F)c(Cl)c2)NC(=O)CN(C)C(=O)[C@H](Cc2ccccc2)N2CCCCC[C@@H](C2=O)N(C)C(=O)CN(C)C1=O: 88.9
- CC[C@H](C)[C@@H]1NC(=O)[C@H](CC(C)C)N(C)C(=O)C[C@@H](C(=O)N2CCOCC2)N(C)C(=O)[C@H](C2CCCC2)N(C)C(=O)C2(CCC2)NC(=O)[C@@H]2[C@H]3C[C@H]3CN2C(=O)[C@H](CCc2cc(F)c(C(F)(F)F)c(F)c2)NC(=O)CN(C)C(=O)[C@H](Cc2ccc(C(F)(F)F)cc2)N2CCCCC[C@@H](C2=O)N(C)C(=O)CN(C)C1=O: 75.7
- CCOC[C@H]1C(=O)N[C@@H]([C@@H](C)CC)C(=O)N2CCC[C@H]2C(=O)N(C)[C@H]2C/C=C\CCN(C2=O)[C@@H](CC2CCCCC2)C(=O)N(C)CC(=O)N[C@@H](CCc2ccc(C(F)(F)F)c(OC)c2)C(=O)N2C[C@@H](C)C[C@H]2C(=O)N(C)C2(CCC2)C(=O)N(C)[C@@H](C2CCCC2)C(=O)N(C)[C@H](C(=O)N(C)C)CC(=O)N1C: 172
- CCOC[C@H]1C(=O)N[C@@H]([C@@H](C)CC)C(=O)N2CCC[C@H]2C(=O)N(C)[C@H]2C/C=C\CCN(C2=O)[C@@H](Cc2ccc(C)cc2)C(=O)N(C)CC(=O)N[C@@H](CCc2cc(F)c(C(F)(F)F)c(F)c2)C(=O)N2C[C@H](OCC)C[C@H]2C(=O)NC2(CC(C)(C)C2)C(=O)N(C)[C@@H](C2CCCC2)C(=O)N(C)[C@H](C(=O)N(C)CC)CC(=O)N1C: 4.8
- CCC(CC)[C@H]1C(=O)N(C)[C@H](C(=O)N(C)C)CC(=O)N(C)[C@@H](COC)C(=O)N[C@@H]([C@@H](C)CC)C(=O)N(C2CC2)CC(=O)N(C)[C@H]2C/C=C\CCN(C2=O)[C@@H](CC2CCC(F)(F)CC2)C(=O)N(C)CC(=O)N[C@@H](CCc2cc(F)c(C(F)(F)F)c(F)c2)C(=O)N2C[C@H](OC3CCC3)C[C@H]2C(=O)NC2(CC(C)(C)C2)C(=O)N1C: 88.7
- CCO[C@@H]1C[C@H]2C(=O)NC3(CCC3)C(=O)N(C)[C@@H](C3CCCC3)C(=O)N(C)[C@H](C(=O)N(C)C)CC(=O)N(C)[C@@H](COCC(F)(F)F)C(=O)N[C@@H]([C@@H](C)CC)C(=O)N(C)CC(=O)N(C)[C@H]3C/C=C\CCN(C3=O)[C@@H](Cc3ccc(C(F)(F)F)cc3)C(=O)N(C)CC(=O)N[C@@H](CCc3cc(F)c(C(F)(F)F)c(F)c3)C(=O)N2C1: 10.8
- CCO[C@@H]1C[C@H]2C(=O)NC3(CCC3)C(=O)N(C)[C@@H](C3CCCC3)C(=O)N(C)[C@H](C(=O)N3CCOCC3)CC(=O)N(C)[C@@H](CC(C)C)C(=O)N[C@@H]([C@@H](C)CC)C(=O)N(C)CC(=O)N(C)[C@H]3CCCCCN(C3=O)[C@@H](Cc3nccs3)C(=O)N(C)CC(=O)N[C@@H](CCc3cc(F)c(C(F)(F)F)c(F)c3)C(=O)N2C1: 445

The record that follows has no IC50 shown yet.
Query string: What measured IC50 goes with `CC[C@H](C)[C@@H]1NC(=O)[C@H](COC)N(C)C(=O)C[C@@H](C(=O)N2CCCCC2)N(C)C(=O)[C@H](C2CCCC2)N(C)C(=O)C2(CC(C)(C)C2)NC(=O)[C@@H]2C[C@@H](OC(C)C)CN2C(=O)[C@H](CCc2cc(F)c(C(F)(F)F)c(F)c2)NC(=O)CN(C)C(=O)[C@H](Cc2ccc(C)cc2)N2CC/C=C\C[C@@H](C2=O)N(C)C(=O)CN(C)C1=O` ?
Result string: 18.7

---

Assayed Target: GDP-bound KRAS wild-type protein (Homo sapiens, UniProt P01116)
Sequence (P01116 whole entry): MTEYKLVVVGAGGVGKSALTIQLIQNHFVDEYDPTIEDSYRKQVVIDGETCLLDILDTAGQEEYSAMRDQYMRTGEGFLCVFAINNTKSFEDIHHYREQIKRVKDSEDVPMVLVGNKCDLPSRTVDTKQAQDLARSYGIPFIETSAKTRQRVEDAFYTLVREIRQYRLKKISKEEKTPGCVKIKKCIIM
Method: Binding to KRAS by surface plasmon resonance (SPR), Single Cycle Kinetics
Conditions: SPR Single Cycle Kinetics, GDP-bound KRAS wild-type protein, 1:1 binding model; read-out: KRAS KD
*1 amine or outer side, *2 acyl side, *3 side chain or, on linkers, in order; H or OH if unused. Where a SMILES comes first, the peptide text is derived from it. Bridges are numbered along the chain shown (N, C = ends). [ ]: non-standard residue; d: D form. The star is where a group is joined. hPhe(3,5-F2-4-CF3) = N[C@@H](CCc1cc(F)c(C(F)(F)F)c(F)c1)C(=O)O; hPhe(3-Cl-4-CF3) = N[C@@H](CCc1ccc(C(F)(F)F)c(Cl)c1)C(=O)O; NPrPhe(4-CF3) = CCCN[C@@H](Cc1ccc(C(F)(F)F)cc1)C(=O)O; X16 = CCCN([C@@H](Cc1ccc(OC)cc1)C(=O)[*:2])[*:1]; Morpholine(3S-CO) = O=C(O)[C@@H]1COCCN1; NMeGly(cPent) = CN[C@H](C(=O)O)C1CCCC1; Gly(cPent) = N[C@H](C(=O)O)C1CCCC1; NMeD = CN[C@@H](CC(=O)O)C(=O)O; NMeL = CN[C@@H](CC(C)C)C(=O)O; αMeV = CC(C)[C@](C)(N)C(=O)O; Morpholide = C1CN(*)CCO1; NMeA = CN[C@@H](C)C(=O)O; Ac5c = NC1(C(=O)O)CCCC1; Aze = O=C(O)[C@@H]1CCN1; NEtG = CCNCC(=O)O; Sar = CNCC(=O)O
Endpoint Label: Kd (nM)
Just the number please, in nM, no unit attached.

• CCCN1C(=O)CN(C)C(=O)CN(C)C(=O)[C@H]([C@@H](C)CC)NC(=O)[C@H](CC(C)C)N(C)C(=O)C[C@@H](C(=O)N2CCOCC2)N(C)C(=O)[C@H](C2CCCC2)N(C)C(=O)C2(CCCC2)NC(=O)[C@@H]2COCCN2C(=O)[C@H](CCc2ccc(C(F)(F)F)c(Cl)c2)NC(=O)CN(C)C(=O)[C@@H]1Cc1ccc(C(F)(F)F)cc1 [PP0265] ([NMeL]I[Sar][Sar][NPrPhe(4-CF3)][Sar][hPhe(3-Cl-4-CF3)][Morpholine(3S-CO)][Ac5c][NMeGly(cPent)][NMeD]-Morpholide; lactam N-11) = 0.28
• CCCN1C(=O)[C@@H]2CCN2C(=O)CN(C)C(=O)[C@H]([C@@H](C)CC)NC(=O)[C@H](CC(C)C)N(C)C(=O)C[C@@H](C(=O)N2CCOCC2)N(C)C(=O)[C@H](C2CCCC2)N(C)C(=O)[C@](C)(C(C)C)NC(=O)[C@@H]2CCCN2C(=O)[C@H](CCc2cc(F)c(C(F)(F)F)c(F)c2)NC(=O)CN(C)C(=O)[C@@H]1Cc1ccc(C(F)(F)F)cc1 [PP0792] ([NMeL]I[Sar][Aze][NPrPhe(4-CF3)][Sar][hPhe(3,5-F2-4-CF3)]P[αMeV][NMeGly(cPent)][NMeD]-Morpholide; lactam N-11) = 0.9
• CCCN1C(=O)CN(C)C(=O)CN(CC)C(=O)[C@H](C2CCCC2)NC(=O)[C@H](CC(C)C)N(C)C(=O)C[C@@H](C(=O)N2CCOCC2)N(C)C(=O)[C@H](C2CCCC2)N(C)C(=O)C2(CCCC2)NC(=O)[C@@H]2CCCN2C(=O)[C@H](CCc2ccc(C(F)(F)F)c(Cl)c2)NC(=O)CN(C)C(=O)[C@@H]1Cc1ccc(C(F)(F)F)cc1 [PP0293] ([NMeL][Gly(cPent)][NEtG][Sar][NPrPhe(4-CF3)][Sar][hPhe(3-Cl-4-CF3)]P[Ac5c][NMeGly(cPent)][NMeD]-Morpholide; lactam N-11) = 0.84
• CCCN1C(=O)[C@@H]2CCN2C(=O)[C@H](C)N(C)C(=O)[C@H]([C@@H](C)CC)NC(=O)[C@H](CC(C)C)N(C)C(=O)C[C@@H](C(=O)N2CCOCC2)N(C)C(=O)[C@H](C2CCCC2)N(C)C(=O)C2(CCCC2)NC(=O)[C@@H]2CCCN2C(=O)[C@H](CCc2ccc(C(F)(F)F)c(Cl)c2)NC(=O)CN(C)C(=O)[C@@H]1Cc1ccc(OC)cc1 [PP0134] ([NMeL]I[NMeA][Aze][X16][Sar][hPhe(3-Cl-4-CF3)]P[Ac5c][NMeGly(cPent)][NMeD]-Morpholide; lactam N-11) = 0.66

The record that follows has no Kd shown yet.
Query string: What measured Kd goes with `CC[C@H](C)[C@@H]1NC(=O)[C@H](CC(C)C)N(C)C(=O)C[C@@H](C(=O)N2CCOCC2)N(C)C(=O)[C@H](C2CCCC2)N(C)C(=O)C2(CCCC2)NC(=O)[C@@H]2CCCN2C(=O)[C@H](CCc2ccc(C(F)(F)F)c(Cl)c2)NC(=O)CN(C)C(=O)[C@H](Cc2ccc(OC)cc2)N2CCCCC[C@@H](C2=O)N(C)C(=O)CN(C)C1=O` ?
Result string: 1.1
